Just for reference, ChEMBL document CHEMBL1136958 is where these values come from.

Target: UniProt P00797
Assay: Inhibition of human recombinant renin
metric: IC50
Answer shape: numeric part, then the unit.

Task: // returns reported IC50 for input CNC[C@H](CC1CCCCC1)NC(=O)N1CCC[C@@H]([C@@](O)(CCCCOC)c2cccc(Br)c2)C1
Result: 0.13 nM

Task: // returns reported IC50 for input CCOCCCC[C@@](O)(c1ccccc1)[C@@H]1CCCN(C(=O)N[C@H](CNC)CC2CCCCC2)C1
Result: 16 nM

----------
Biological target: Renin (Homo sapiens, UniProt P00797)
Sequence (P00797 whole entry): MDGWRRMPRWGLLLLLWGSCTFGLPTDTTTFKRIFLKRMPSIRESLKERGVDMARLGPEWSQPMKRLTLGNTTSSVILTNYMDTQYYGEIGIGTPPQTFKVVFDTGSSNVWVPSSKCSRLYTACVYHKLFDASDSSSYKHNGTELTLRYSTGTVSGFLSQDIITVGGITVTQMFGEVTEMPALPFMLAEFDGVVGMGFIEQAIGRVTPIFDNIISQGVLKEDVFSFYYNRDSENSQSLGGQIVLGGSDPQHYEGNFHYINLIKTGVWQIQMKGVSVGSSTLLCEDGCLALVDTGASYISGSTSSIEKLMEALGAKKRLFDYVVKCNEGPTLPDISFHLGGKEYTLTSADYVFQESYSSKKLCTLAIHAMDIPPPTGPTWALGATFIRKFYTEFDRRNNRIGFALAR
Assay: Inhibition of human recombinant renin in presence of human plasma by competitive radioimmunoassay
Assay type: cell-free
Listed compounds paired with reported pIC50
# pIC50: negative log10 of molar concentration; output just the value

The following compounds have reported results that may help.
- structure-as-smiles: "CNC[C@H](CC1CCCCC1)NC(=O)N1CCC[C@@H]([C@@](O)(CCCCOC)c2cccc(C)c2)C1"
  metric: "pIC50"
  test-value: 7.17
- structure-as-smiles: "CNC[C@H](CC1CCCCC1)NC(=O)N1CCC[C@@H]([C@@](O)(CCCCOC)c2ccccc2F)C1"
  metric: "pIC50"
  test-value: 7.21
- structure-as-smiles: "CCOCCCO[C@@H](c1ccccc1)[C@@H]1CCCN(C(=O)N[C@H](CNC)CC2CCCCC2)C1"
  metric: "pIC50"
  test-value: 6.35
- structure-as-smiles: "CCNC[C@H](CC1CCCCC1)NC(=O)N1CCC[C@@H]([C@@](O)(CCCCOC)c2cccc(Cl)c2)C1"
  metric: "pIC50"
  test-value: 6.81
- structure-as-smiles: "CNC[C@H](CC1CCCCC1)NC(=O)N1CCC[C@@H]([C@@](O)(CCCCOC)c2cccc(Br)c2)C1"
  metric: "pIC50"
  test-value: 7.92

Task: Looking for the measured pIC50 of CNC[C@H](CC1CCCCC1)NC(=O)N1CCC[C@@H]([C@@H](OCCCOC)c2cccc(Cl)c2F)C1 , can you help?
Result: 6.43

Task: Given the compound CNC[C@H](CC1CCCCC1)NC(=O)N1CCC[C@@H]([C@@](O)(CCCCOC)c2cccc(OC)c2)C1 , what is its reported pIC50?
Result: 7.06

Task: Please give the measured pIC50 for this compound: CNC[C@H](CC1CCCCC1)NC(=O)N1CCC[C@@H]([C@@](O)(CCCCOC)c2cccc(F)c2F)C1
Result: 7.70
